Value source: the supplement of paper PMC9112550

- Test system: Escherichia coli TOP10
- Protocol Details: shrunken log2 fold change of peptide-encoding DNA abundance (4.5 h post-induction vs induction); higher = less antimicrobial activity (less host growth inhibition)
- Test Settings: time post-induction: 4.5 h; library: site-saturation at positions 5, 18, 19, 20
Grouping rule (shrunken log2 fold change): low (below -0.2), medium (-0.2 to below 0.02), high (0.02 or more)

| Chain Sequence | Cat |
| --- | --- |
| RRIRGRPPRLPRPRPRPFPGPRP | high |
| RRIRVRPPRLPRPRPRPTTQPRP | high |
| RRIRRRPPRLPRPRPRPDCAPRP | high |
| RRIRSRPPRLPRPRPRPPKVPRP | low |
| RRIRRRPPRLPRPRPRPIYFPRP | high |
| RRIRVRPPRLPRPRPRPSDQPRP | low |
| RRIRNRPPRLPRPRPRPVWRPRP | high |
| RRIRGRPPRLPRPRPRPGTIPRP | medium |
| RRIRFRPPRLPRPRPRPVQSPRP | medium |
| RRIRMRPPRLPRPRPRPWKHPRP | medium |
| RRIRNRPPRLPRPRPRPMIDPRP | medium |
| RRIRSRPPRLPRPRPRPDKHPRP | low |
| RRIRNRPPRLPRPRPRPEQVPRP | high |
| RRIRYRPPRLPRPRPRPSKIPRP | low |
| RRIRDRPPRLPRPRPRPYAQPRP | medium |
| RRIRNRPPRLPRPRPRPQTSPRP | low |
| RRIRARPPRLPRPRPRPKNYPRP | low |
| RRIRARPPRLPRPRPRPCCGPRP | high |
| RRIRYRPPRLPRPRPRPYTIPRP | medium |
| RRIRERPPRLPRPRPRPSIHPRP | medium |
| RRIRRRPPRLPRPRPRPKWDPRP | high |
| RRIRMRPPRLPRPRPRPNAWPRP | high |
| RRIRRRPPRLPRPRPRPTWYPRP | high |
| RRIRFRPPRLPRPRPRPVIKPRP | low |
| RRIRSRPPRLPRPRPRPSREPRP | medium |
| RRIRERPPRLPRPRPRPNIAPRP | high |
| RRIRVRPPRLPRPRPRPADMPRP | medium |
| RRIRYRPPRLPRPRPRPCIPPRP | medium |
| RRIRARPPRLPRPRPRPFYKPRP | medium |
| RRIRRRPPRLPRPRPRPNHNPRP | low |
| RRIRVRPPRLPRPRPRPQNFPRP | medium |
| RRIRIRPPRLPRPRPRPQIMPRP | low |

====

- System: Escherichia coli TOP10
- Protocol Details: shrunken log2 fold change of peptide-encoding DNA abundance (4.5 h post-induction vs induction); higher = less antimicrobial activity (less host growth inhibition)
- Test Settings: time post-induction: 4.5 h; library: site-saturation at positions 5, 18, 19, 20

| Chain Sequence | shrunken log2 fold change |
| --- | --- |
| RRIRPRPPRLPRPRPRPLMQPRP | 0.124 |
| RRIRRRPPRLPRPRPRPSTRPRP | 0.194 |
| RRIRYRPPRLPRPRPRPGPGPRP | 0.304 |
| RRIRERPPRLPRPRPRPCMKPRP | -0.506 |
| RRIRERPPRLPRPRPRPKEHPRP | -0.457 |
| RRIRKRPPRLPRPRPRPVRRPRP | 0.377 |
| RRIRMRPPRLPRPRPRPSLVPRP | -0.252 |
| RRIRWRPPRLPRPRPRPMNEPRP | 0.0689 |
| RRIRTRPPRLPRPRPRPHFMPRP | -0.339 |
| RRIRCRPPRLPRPRPRPSNWPRP | 0.0114 |
| RRIRHRPPRLPRPRPRPLVVPRP | -0.0489 |
| RRIRYRPPRLPRPRPRPFFPPRP | -0.682 |
| RRIRARPPRLPRPRPRPYGHPRP | -0.095 |
| RRIRPRPPRLPRPRPRPCHNPRP | 0.156 |
| RRIRNRPPRLPRPRPRPFVKPRP | -0.669 |
| RRIRIRPPRLPRPRPRPHTYPRP | -0.715 |
| RRIRERPPRLPRPRPRPDSRPRP | -0.0302 |
| RRIRDRPPRLPRPRPRPPTQPRP | 0.285 |
| RRIRTRPPRLPRPRPRPAGIPRP | -0.0928 |
| RRIRVRPPRLPRPRPRPCEEPRP | 0.24 |
| RRIRCRPPRLPRPRPRPGVDPRP | -0.0475 |
| RRIRKRPPRLPRPRPRPEKTPRP | -0.000942 |
| RRIRCRPPRLPRPRPRPTPNPRP | 0.786 |
| RRIRRRPPRLPRPRPRPIAPPRP | 0.702 |
| RRIRNRPPRLPRPRPRPEFEPRP | 0.114 |
| RRIRYRPPRLPRPRPRPTLHPRP | -0.749 |
| RRIRFRPPRLPRPRPRPGQDPRP | -0.0452 |
| RRIRGRPPRLPRPRPRPDSYPRP | 0.0941 |
| RRIRGRPPRLPRPRPRPHTLPRP | -0.22 |
| RRIRSRPPRLPRPRPRPAQEPRP | 0.0123 |
| RRIRYRPPRLPRPRPRPDANPRP | -0.114 |
| RRIRGRPPRLPRPRPRPEYRPRP | 0.354 |
| RRIRHRPPRLPRPRPRPDKQPRP | 0.0409 |
| RRIRPRPPRLPRPRPRPRHWPRP | 0.423 |
| RRIRTRPPRLPRPRPRPDFCPRP | -0.311 |
| RRIRERPPRLPRPRPRPTQWPRP | 0.00138 |
| RRIRARPPRLPRPRPRPHITPRP | -0.294 |
| RRIRTRPPRLPRPRPRPLHAPRP | 0.143 |
| RRIRCRPPRLPRPRPRPAQVPRP | -0.053 |
| RRIRSRPPRLPRPRPRPRFGPRP | 0.342 |
| RRIRIRPPRLPRPRPRPKHEPRP | 0.0924 |
| RRIRYRPPRLPRPRPRPDRWPRP | -0.118 |
| RRIRMRPPRLPRPRPRPEGCPRP | 3.93 |
| RRIRGRPPRLPRPRPRPCFKPRP | 0.00363 |
| RRIRNRPPRLPRPRPRPHDAPRP | -0.116 |
| RRIRFRPPRLPRPRPRPKGLPRP | -0.146 |
| RRIRDRPPRLPRPRPRPKGTPRP | -0.0298 |
| RRIRWRPPRLPRPRPRPAHIPRP | -0.0509 |
| RRIRERPPRLPRPRPRPWEDPRP | -0.0727 |
| RRIRRRPPRLPRPRPRPRRLPRP | 0.54 |
| RRIRDRPPRLPRPRPRPEEDPRP | 0.012 |
| RRIRQRPPRLPRPRPRPLHRPRP | -0.11 |
| RRIRCRPPRLPRPRPRPIAFPRP | -0.195 |
| RRIRWRPPRLPRPRPRPGKYPRP | -0.227 |
| RRIRTRPPRLPRPRPRPDLKPRP | 0.156 |
| RRIRSRPPRLPRPRPRPGSNPRP | -0.00709 |
| RRIRERPPRLPRPRPRPFAPPRP | 0.117 |
| RRIRKRPPRLPRPRPRPDREPRP | 0.186 |
| RRIRGRPPRLPRPRPRPVCPPRP | 0.385 |
| RRIRQRPPRLPRPRPRPCQCPRP | -0.034 |
| RRIRVRPPRLPRPRPRPYPAPRP | -0.715 |
| RRIRFRPPRLPRPRPRPKRMPRP | 0.133 |
| RRIRKRPPRLPRPRPRPGQMPRP | 0.00812 |

====

- Tested on: Escherichia coli TOP10;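 further: peptides expressed intracellularly from a pBAD plasmid library in pooled LB shake-flask culture, induced with 0.3% L-arabinose, DNA abundance read by NGS, three biological replicates, DESeq2 with apeglm shrinkage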
- Protocol Details: shrunken log2 fold change of peptide-encoding DNA abundance (4.5 h post-induction vs induction); higher = less antimicrobial activity (less host growth inhibition)
- Test Settings: time post-induction: 4.5 h; library: site-saturation at positions 5, 18, 19, 20
Items are presented alongside their recorded shrunken log2 fold change.

| Chain Sequence | shrunken log2 fold change |
| --- | --- |
| RRIRCRPPRLPRPRPRPAMIPRP | 0.111 |
| RRIRCRPPRLPRPRPRPNMYPRP | -0.916 |
| RRIRWRPPRLPRPRPRPTPTPRP | 0.22 |
| RRIRRRPPRLPRPRPRPGYPPRP | 0.00327 |
| RRIRSRPPRLPRPRPRPTSSPRP | -0.296 |
| RRIRRRPPRLPRPRPRPIMVPRP | -0.371 |
| RRIRQRPPRLPRPRPRPFHCPRP | -0.192 |
| RRIRYRPPRLPRPRPRPTPYPRP | -0.847 |
| RRIRFRPPRLPRPRPRPIQYPRP | -0.451 |
| RRIRDRPPRLPRPRPRPSLIPRP | -0.156 |
| RRIRLRPPRLPRPRPRPCHPPRP | 0.159 |
| RRIRVRPPRLPRPRPRPVRFPRP | 0.391 |
| RRIRIRPPRLPRPRPRPCDQPRP | -0.021 |
| RRIRERPPRLPRPRPRPQDWPRP | -0.206 |
| RRIRMRPPRLPRPRPRPRVGPRP | 1.02 |
